MEASURED PARAMETER: melting point

Reference set (4 entries):
| COMPOUND | melting point |
| --- | --- |
| CC(C)Cc1c2c(nn1C)c(N)nc1ncccc12 | > 250 °C |
| CC=CCn1c(Nc2cc(C)cc(C)c2)c(C(C)C)c(=O)[nH]c1=O | 186 to 187 °C |
| Cc1cc2c(c(C)c1[N+](=O)[O-])OCO2 | 75 to 76 °C |
| CN(C)Cc1ccc(CSCCNC(=C[N+](=O)[O-])NCCCCCCCCCCCCNC(=C[N+](=O)[O-])NCCSCc2ccco2)o1 | 69 to 72 °C |

## Task Provide only the value of recorded melting point for Cc1cc(C(=O)NCCc2ccccc2)n(C)n1
## Result 90.5 to 91.5 °C

## Task Provide only the value of recorded melting point for CCOC(=O)CNC(=O)c1nc2ccc(Cl)nn2n1
## Result 175 to 177 °C

## Task Provide only the value of recorded melting point for O=Cc1c(Cl)nc(-c2ccccc2)n1Cc1ccc(Br)cc1
## Result 92 to 95 °C

## Task Provide only the value of recorded melting point for CC(C)NC(=O)c1ccc(F)c2c1CC(N(CCCc1c[nH]c3ccc(F)cc13)C1CCC1)CO2 (stereo unspecified)
## Result 127 °C

* * *

# maps each entry to its melting point

Reference set (3 entries):
| MOLECULE | melting point |
| --- | --- |
| ON=C1CCOc2ccccc21 | 114 to 117 °C |
| COC(=O)c1cc(Cl)c(NC(C)=O)cc1OC1CCOC1=O (stereo not given) | 118 to 119 °C |
| CC(C)(C)OC(=O)NCCCCC(=O)N[C@@H](CC(=O)OCc1ccccc1)C(=O)N[C@@H](Cc1ccccc1)C(=O)OCc1ccccc1 | 120 °C |

## Task Provide only the value of recorded melting point for Cc1cccc2c(-c3ccc(F)cc3)nccc12
## Result 91 to 92 °C

## Task Provide only the value of recorded melting point for CN1C(=O)C(c2ccccc2)(C23CC4CC(CC(C4)C2)C3)N=C1N (stereo not given)
## Result 250 °C

## Task Provide only the value of recorded melting point for N#Cc1ccc(N(c2ccccc2)n2ccnc2)cc1
## Result 162 °C

## Task Provide only the value of recorded melting point for C#CC1(O)CCc2c(OC)ccc(OC)c2C1 (stereo not given)
## Result 103 to 105 °C

## Task Provide only the value of recorded melting point for Cc1ccc(CO[C@H]2CO[C@@H](c3ccccc3)OC2)cc1C
## Result 79 to 80 °C

## Task Provide only the value of recorded melting point for O=C(Nc1ccccc1)c1cccs1
## Result 139 to 149 °C

## Task Provide only the value of recorded melting point for O=C(O)c1ccc(OCCCCn2c(-c3ccccc3)nc(-c3ccccc3)c2-c2ccccc2)cc1
## Result 202 to 203 °C

* * *

# maps each entry to its melting point

Reference set (6 entries):
| COMPOUND | melting point |
| --- | --- |
| C=C(CC(C)C)C(=O)NCCCCCC(N)=O | 76 to 82 °C |
| Nc1ncc2c(n1)CCC(CNC(=O)[C@@H]1CCCN1C(=O)[C@@H](CC1CCCCC1)NS(=O)(=O)Cc1ccccc1)C2 (stereo not given in full) | 118 to 121 °C |
| COC(=O)c1ccc(Cc2cccc3ccc(N)cc23)c(OC)c1 | 138 to 140 °C |
| CC(C)(C)OC(=O)NN(Cc1ccc(Cl)cc1)C(=O)OCC1c2ccccc2-c2ccccc21 | 53 to 55 °C |
| CC#CCOc1cc(Oc2ccc(Cl)cc2F)ncn1 | 118 °C |
| O=C1Nc2ccc(Cl)cc2C1CC1CCCCC1 (stereo not given) | 152 to 153 °C |

## Task Provide only the value of recorded melting point for CCN(CC)C(=O)Nc1cc(C(C)(C)C)on1
## Result 122 to 124 °C

## Task Provide only the value of recorded melting point for O=S(=O)(c1ccc(Cl)cc1)N1CCCC1c1ccc(F)c(F)c1 (racemic)
## Result 121 °C

## Task Provide only the value of recorded melting point for COc1cnc(CO)c(C)c1OC
## Result 91 to 92 °C

## Task Provide only the value of recorded melting point for N#Cc1cc([N+](=O)[O-])ccc1N1CCNCC1CCO (stereo not given)
## Result 100 to 102 °C

* * *

# maps each entry to its melting point

Reference set (5 entries):
| MOLECULE | melting point |
| --- | --- |
| CS(=O)(=O)N(C(=O)OCc1ccccc1)c1cc(O)ccc1OCc1ccccc1 | 138 to 140 °C |
| CC(C)(C)c1ccc(CCC(=O)CC2CCCCC2)cc1NC(=O)CC1c2ccccc2Oc2ccccc21 | 154 to 155 °C |
| N#Cc1nn(-c2c(Cl)cc(C(F)(F)F)cc2Cl)cc1C1CC1(Br)Br (centres undefined) | 121 to 123 °C |
| Cc1cc(C)c(/C=C/C2OCC(C)(C)CO2)c(Br)c1 | 54 to 56 °C |
| CCC1(CC)c2cc(C(=O)O)c(C(=O)O)cc2C(CC)(CC)N1C(=O)c1ccccc1 | 244 to 246 °C |

## Task Provide only the value of recorded melting point for OCc1ccc2c(c1)C1(c3ccccc3-2)c2ccccc2-c2ccc(CO)cc21
## Result 254 to 255 °C

## Task Provide only the value of recorded melting point for CC(=O)OC1CCC2(C)C(=CC(=NO)C3C2CCC2(C)C(OC(C)=O)CCC32)C1 (centres undefined)
## Result 236 to 238 °C

## Task Provide only the value of recorded melting point for COc1ccnc(CCc2nc3cc(-c4ccc(S(=O)(=O)NCCO)cc4)cnc3[nH]2)c1
## Result 218 to 220 °C

## Task Provide only the value of recorded melting point for NS(=O)(=O)c1ccc(CCI)cc1
## Result 227 °C

* * *

MEASURED PARAMETER: melting point (°C)

Reference set (3 entries):
| COMPOUND | melting point [°C] |
| --- | --- |
| O=S(Cc1cc(OCc2ccc(C(F)(F)F)cc2)ccn1)c1nc2cscc2[nH]1 (stereo unspecified) | 149 |
| COc1ccc(C(=O)N[C@H]2C[C@@H](c3cc(NC(=O)Cc4cccc5ccccc45)n[nH]3)C2)cc1 | 176 |
| NC(=O)NC1CCN(Cc2ccccc2)CC1 | 140 |

P. CN1C=C(c2ccccc2)c2cccc(NC(=O)C=NO)c2C1
Q. CCOC(=O)CCCNc1cccc(Br)c1
## Task # compare melting point for P vs Q ; return the one with the smaller value Label of pick, please.
## Result Q

* * *

# maps each entry to its melting point

| MOLECULE | melting point |
| --- | --- |
| O=C([C@H]1CC[C@H](Nc2nccc(-n3ncc4ccccc43)n2)CC1)N1CCOCC1 | 191 to 192 °C |
| Cc1cc(C)c2[nH]c(=O)n(CCCN3CC=C(c4ccc(Cl)cc4)CC3)c(=O)c2c1 | 224 to 226 °C |
| CC(C(=O)O)c1ccc2nc(-c3ccccc3)ccc2c1 (centres undefined) | 161 to 162 °C |
| CCNc1nc(OC)c(C(=O)NCCN(CC)CC)nc1Cl | 142 °C |
| COc1cccc(C(C)N(C)CCCOc2ccc(S(=O)(=O)c3c(C(C)C)cn4ccccc34)cc2)c1 (centres undefined) | 111 to 113 °C |

Next molecule, melting point to be filled in.
## Task Provide only the value of recorded melting point for O=[N+]([O-])c1cccc2c1C1OC1CC2 (centres undefined)
## Result 67 °C

* * *

# maps each entry to its melting point

Reference set (5 entries):
| COMPOUND | MEASURED PARAMETER | REPORTED |
| --- | --- | --- |
| Clc1ccc(N2CCC3(CCNCC3)CC2)cc1 | melting point | 95.5 to 97.4 °C |
| COc1ccc(C=Cc2cc(OC)c(OC)c(OC)c2)cc1OC | melting point | 150 to 152 °C |
| O=C(Nc1cccc(C(F)(F)F)c1)c1ccc([N+](=O)[O-])cc1 | melting point | 210 °C |
| CNC(=O)C(NC(=O)Nc1n[nH]c(=S)s1)c1ccccc1 (stereo unspecified) | melting point | 240 to 241 °C |
| Cc1noc(NC(=O)NCCC2CCN(Cc3ccccc3)CC2)n1 | melting point | 138 to 139 °C |

## Task Provide only the value of recorded melting point for Cc1nn(-c2ccccn2)cc1COc1ccc(CCC(=O)O)cc1
## Result 129 to 130 °C

* * *

MEASURED PARAMETER: melting point

Reference set (2 entries):
| COMPOUND | melting point |
| --- | --- |
| COc1ccc2nscc2c1 | 51 to 55 °C |
| Cc1cc(O)n2nc(SCc3ccccc3)nc2c1 | 214 to 216 °C |

## Task Provide only the value of recorded melting point for O=C1C2CN(Cc3ccccc3)CC2C(=O)N1Cc1ccccc1 (stereo not given)
## Result 100 °C

## Task Provide only the value of recorded melting point for Cc1ncc(C#N)c(Cl)c1I
## Result 120 to 122 °C

## Task Provide only the value of recorded melting point for NC(=O)N1C(=O)C(=C(OC(=O)C=CC(=O)O)c2cccs2)c2cc(F)c(Cl)cc21
## Result 229 to 232 °C
